Molecular target: PDE4D (Homo sapiens, UniProt Q08499)
Construct: purchased BPS Bioscience, San Diego
Sequence (Q08499 whole entry): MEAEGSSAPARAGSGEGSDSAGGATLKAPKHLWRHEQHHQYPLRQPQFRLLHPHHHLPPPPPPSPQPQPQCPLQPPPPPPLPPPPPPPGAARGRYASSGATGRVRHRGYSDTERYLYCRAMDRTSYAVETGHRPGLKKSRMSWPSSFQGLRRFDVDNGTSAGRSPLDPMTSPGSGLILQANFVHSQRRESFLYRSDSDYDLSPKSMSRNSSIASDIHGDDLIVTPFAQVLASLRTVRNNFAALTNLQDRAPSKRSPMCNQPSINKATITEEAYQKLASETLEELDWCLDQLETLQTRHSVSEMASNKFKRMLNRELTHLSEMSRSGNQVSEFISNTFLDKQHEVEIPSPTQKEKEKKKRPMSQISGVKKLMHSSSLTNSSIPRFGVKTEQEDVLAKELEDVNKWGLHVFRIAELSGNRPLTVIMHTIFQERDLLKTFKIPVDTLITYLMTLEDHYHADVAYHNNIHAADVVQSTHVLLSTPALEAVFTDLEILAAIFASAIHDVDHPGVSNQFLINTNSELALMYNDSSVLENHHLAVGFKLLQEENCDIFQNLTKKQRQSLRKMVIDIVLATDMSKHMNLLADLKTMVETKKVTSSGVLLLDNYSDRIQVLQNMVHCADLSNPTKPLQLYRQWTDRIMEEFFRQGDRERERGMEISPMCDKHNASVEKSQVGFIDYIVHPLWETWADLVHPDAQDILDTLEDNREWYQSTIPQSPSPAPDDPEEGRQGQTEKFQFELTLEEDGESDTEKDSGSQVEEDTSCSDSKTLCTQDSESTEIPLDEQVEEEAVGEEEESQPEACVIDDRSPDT
Assay: In vitro PDE4 inhibition study, PDE4D (BPS Bioscience)
Assay type: binding
Details: values in parentheses
Assign inhibition at 10 µM to each entry below.
Numbers only, in %.

Solved cases (8 shown):
> print(dat)
                                   compound                           system.name    measured.property  reported.value
1  COc1ccc(-n2c(C(=O)N3CC(F)C3)cc3cccnc32)cc1  PDE4D (Homo sapiens, UniProt Q08499)  inhibition at 10 µM              37
2  O=C(NC1CCC1)c1cc2cccnc2n1-c1cc(F)c(Cl)c(F)c1  PDE4D (Homo sapiens, UniProt Q08499)  inhibition at 10 µM            10.7
3  O=C(c1cc2cccnc2n1-c1ccc(Cl)c(Cl)c1)N1CC(F)C1  PDE4D (Homo sapiens, UniProt Q08499)  inhibition at 10 µM              77
4  O=C(NC1CCC1)c1cc2cccnc2n1-c1ccc(Cl)c(Cl)c1  PDE4D (Homo sapiens, UniProt Q08499)  inhibition at 10 µM              24
5  Cc1ccc(-n2c(C(=O)N3CC(F)C3)cc3cccnc32)cc1Cl  PDE4D (Homo sapiens, UniProt Q08499)  inhibition at 10 µM              60
6  O=C(c1cc2cccnc2n1-c1ccc(Cl)c(F)c1)N1CC(F)C1  PDE4D (Homo sapiens, UniProt Q08499)  inhibition at 10 µM              71
7  N#Cc1c(F)cc(-n2c(C(=O)NC3CC(F)C3)cc3cccnc32)cc1F (stereo not drawn)  PDE4D (Homo sapiens, UniProt Q08499)  inhibition at 10 µM            12.1
8  O=C(c1cc2cccnc2n1-c1ccc(Cl)c(Cl)c1)N1CCCC2(CCO2)C1 (stereo not drawn)  PDE4D (Homo sapiens, UniProt Q08499)  inhibition at 10 µM              39

Quick note, inhibition at 10 µM for "O=C(NC1CC1)c1cc2cccnc2n1-c1ccc(Cl)c(F)c1" landed at 24
